The measured values listed here are drawn from ChEMBL document CHEMBL2417493.

experiment: Cytotoxicity against human HepG2 cells after 72 hrs by MTT assay; assay type: cell-based
Cut-off 400 µg/mL on CC50 at 72 h: below means satisfied, at or above means not satisfied.

INSERT INTO results (query_smiles, label_value) VALUES
  ('Clc1ccc2sc(-c3c(/N=C/C=C/c4ccccc4)sc4c3CCCC4)nc2c1', 'satisfied'),
  ('Fc1ccc(/C=N/c2sc3c(c2-c2nc4ccccc4s2)CCC3)cc1', 'satisfied'),
  ('C(=C\c1ccccc1)/C=N/c1sc2c(c1-c1nc3ccccc3s1)CCCC2', 'not satisfied'),
  ('Oc1ccccc1/C=N/c1sc2c(c1-c1nc3ccccc3s1)CCC2', 'satisfied'),
  ('Clc1ccccc1/C=N/c1sc2c(c1-c1nc3ccccc3s1)CCCC2', 'satisfied'),
  ('C(=N\c1sc2c(c1-c1nc3ccccc3s1)CCCC2)/c1ccc2c(c1)OCO2', 'satisfied');
